IC50 for assorted compounds
- Test system: Plasmodium falciparum
- assay-explanation: Antiparasitic activity against Plasmodium falciparum Dd2 clone MRA-150 synchronized ring stage after 48 hrs by PicoGreen dye based microfluorimetric analysis
- Assay type: functional, organism-based
- particulars: Dd2 clone MRA-150, 48 h
observation-type: IC50 (µM)

> print(dat)
                           structure.string  observation.type  result.modifier  numeric.value
1  CO[C@H]1O[C@H](CSCCN)[C@@H](O)[C@H](O)[C@H]1O              IC50                =           1750
2  CO[C@H]1O[C@H](CSCCCN)[C@@H](O)[C@H](O)[C@H]1O              IC50                >           2000
3  CO[C@H]1O[C@H](CS(=O)(=O)CCCN)[C@@H](O)[C@H](O)[C@H]1O              IC50                >           2000
4  CO[C@H]1O[C@H](CSCCC#N)[C@@H](O)[C@H](O)[C@H]1O              IC50                =           1020
5  CO[C@H]1O[C@H](CSCCNC(=N)N)[C@@H](O)[C@H](O)[C@H]1O              IC50                =            590
6  CO[C@H]1O[C@H](CS(=O)(=O)CCCNC(=N)N)[C@@H](O)[C@H](O)[C@H]1O              IC50                =           1570
7  CO[C@H]1O[C@H](CNS(=O)(=O)CCN)[C@@H](O)[C@H](O)[C@H]1O              IC50                =           1470
8  CO[C@H]1O[C@H](CS(=O)(=O)CCC#N)[C@@H](O)[C@H](O)[C@H]1O              IC50                =            960
9  CO[C@H]1O[C@H](CNS(=O)(=O)CCNC(=N)N)[C@@H](O)[C@H](O)[C@H]1O              IC50                =            330

---

- assay-explanation: Selectivity index, ratio of Ki for recombinant full length human G6PD to Ki for Plasmodium falciparum G6PD-6PGL
Ratio Ki for assorted compounds
observation-type: Ratio Ki

> print(dat)
                           structure.string  observation.type  result.modifier  numeric.value
1  CO[C@H]1O[C@H](CNS(=O)(=O)CCNC(=N)N)[C@@H](O)[C@H](O)[C@H]1O          Ratio Ki                =            0.5
2  CO[C@H]1O[C@H](CSCCN)[C@@H](O)[C@H](O)[C@H]1O          Ratio Ki                >             26
3  CO[C@H]1O[C@H](CSCCNC(=N)N)[C@@H](O)[C@H](O)[C@H]1O          Ratio Ki                >            4.4
4  CO[C@H]1O[C@H](CS(=O)(=O)CCCN)[C@@H](O)[C@H](O)[C@H]1O          Ratio Ki                =              1
5  CO[C@H]1O[C@H](CSCCC#N)[C@@H](O)[C@H](O)[C@H]1O          Ratio Ki                >            0.8
